test: yeast display, Sf9 membrane polyspecificity reagent, FACS + sequencing; frameworks hold sequencing errors
Quantity: polyreactivity (PSR sort gate)

Past entries and their recorded results:
QVQLVESGGGLVQAGGSLRLSCAASGSTFSNYAMGWYRQAPGKERELVASISNGGSTNYADSVKGRFTISRDNAMNTVYLQMNSLKPEDTSVYNCNAESKAKYDYWGQGTQVTVSS    low polyreactivity
QVQLVESGGGLVQAGGSLRLSCAASGSTFVDNAMGWYRQAPGKERELVAAISTRGGTTYYADSVKGRFTISRDNAKNTVYLQMNSLKPEDTAVYYCAADYYDSGWYGYWGQGTQVTVSS    high polyreactivity
QVQLVESGGGLVQAGGSLRLSCAASGSTIRVNVMGWYRQAPGKERELVAAITTSGGSTYYADSVKGRFTISRDNAKNTVYLQMNSLKPEDTAVYYCNTTYPSGWGPDMDYWGQGTQVTVSS    low polyreactivity
QVQLVESGGGLDQAGGSIRLSCAASGGTFKANAMGWYRQAPGKEREVVAAIRQTGGSTYYADSVKGRFTISRDNEKNTVYLQMNSLKPEDTAVYYCAAQSHRYWIYDYWGQCTQVTVSS    high polyreactivity
QVQLVESGGGLVQAGGSLRLSCAASGFTFIYYAMGWYRQAPGKERELVAAISASGGSTYYADSVKGRFTISRDNAKNTVYLQMNSLKPEDTAVYYCAADALIYYKGSPDYYWGQGTQVTVSS    high polyreactivity
QVQLVESGGGLVQAGGSLRLSCAASGFIFVIYAKGWYRQAPGKERELVARISFRSGRTYYADSVKGRFTISRDNAKNTVYLQMNSLKPEDTAVYYCNAVLYGQYKYDYWGQGTQVTVSS    high polyreactivity
QVQLVESGGGLVQAGGSLRFSCAASGFTFYPNTMGWYRQAPGTERELVAAISSSGGRTYYADSVKGRFTISRDNAKNTVYLQMNSLKPEDNAVYYCNAAKWLTSGGLDYWGQGTQVTVSS    high polyreactivity
QVQLVESGGGLVQAGGSLPLSCAASASIFSYYDMGWYRQAPGKERELVAAISWSGGSTYYADSVKGRFTISRDNAKNTVYLQMNSLKPEDTAVYYCAAGTYPYYWGQGTQVTVSS    low polyreactivity
QVQLVESGGGLVQAGGSLRLSCAASGRIFRYYAMGWYRQAPGQERELVAAISWRGGITNYADSVKGRFTISRDNAKNTVYLQMNSLKPEDTAVYYCNRVQGPDSQAKTSMYYWGQGTQVTVSS    high polyreactivity
QVQLVESGVGLVQAGGSLRLSCAASGSTFEVHSMGWYRQAPGKERELVATITRSGGSTYYADSVKGRFTISRDNGKNTVYLQMNSLKPEDTAVYYCNALWELKWGQGTQVTVSS    low polyreactivity

Give reported polyreactivity (PSR sort gate) value for `QVQLVESGGGLVQAGGSLRLSCAASGGTFVGNAMGWYRQAPGKERELVAAISTNSGSTYYADSVKGRFTISRDNAKNTVYLQMNSLKPEDPAVYYCATRNSSKRRGYYYWGQGTQVTVSS`
high polyreactivity

Give reported polyreactivity (PSR sort gate) value for `QVQLVESGGGLVQAGGSLRLSCAESGLTFWDYVMGWYRQAPGKEMELVAAISDSGGDTYYADSVKGRFTISRDNAKNTVYLQMNSLKPEDTAVYYCAAEYAEYVLEYYRLYEYWGQGTQVTVSS`
high polyreactivity

Give reported polyreactivity (PSR sort gate) value for `QVQLGESGGGLVQAGGSLRLSCAASGSTFERYSMGWYRQAPGKERELDAAINWSGGGTYYADSVKGRFTISRDNAKNTVYLQMNSLKPEDTAVYYCAADSGNVVFSLWWYEYYYWGQGTQVTVSS`
low polyreactivity

Give reported polyreactivity (PSR sort gate) value for `QVQLVESGGGLVQAGGSLRLSCAASGFIFTLYTMGWYRQAPGKERELVAAIDKNGSTYYADSVKGRFTISRDNAKNTVYLQMNSLKPEDTAVYYCAADDRYRGNREDYWGQGTQVNVSS`
low polyreactivity

====

assay: yeast display, Sf9 membrane polyspecificity reagent, FACS + sequencing; frameworks hold sequencing errors
Quantity: polyreactivity (PSR sort gate)

QVQLVESGGGLVQAGGSLRLSCAASGSTFQTYAMGWYRQAPGKERELVAAITWRGGSTYYADSVKGRFTISRDNAKTTVYLQMNSLKPEDTAVYSCAAKWHGAHDHRAAYESWGQGTQVTVSS    low polyreactivity
QVQLVESGGGLVQAGGSLRLSCAASGSIFVYYAMGWYRQAPGKERELVAAINFRGGNTYYADSVKGRFTISRDNAKNTVYLQMNSLKPEDTAVYYCAADYRWKWIGGARYDYWGQGTQVTVSS    low polyreactivity

====

test: yeast display, Sf9 membrane polyspecificity reagent, FACS + sequencing; frameworks hold sequencing errors
Quantity: polyreactivity (PSR sort gate)

Past entries and their recorded results:
QVQLVESGGGLVQAGGSLRLTCAASGNTFYGKTIGWYRQAPGKERELVAAIRFTGGSTTYADSVKGRFTISRDNAKITVYLQLNRLKPEDTAVYYCNTVWVSFSSIYHEYDYWGQGTQVTVSS    low polyreactivity
QVQLVESGGGLVQAGGSLRLSCAASVRTFYIYAMGWYIQAHGKERELVAAITSVGSTNYADSVKGRFTISRDNAKNTVNLQMNSLKPEDTAVYYCAAESTEGTSGDYDYWGQGTQVTVSS    low polyreactivity
QVQLVESGGGLVQAGGSLRLSCAASGRIFRGYAMGWYRQAPGKERELVAAIDTDTGITYYADSVKGRFTISRDNAKNTVYLQMNSLKPEDTAVYYCAAETYYAVSTGYDFDYWGQGTQVTVSS    high polyreactivity
QVQLVESGGGLVQAGGSLRLSCAASGRTFNPYVMGWYRQAPGKERELVARIRGSGTSTYYADSVKGRFTISRDNAKNTVYLHMNSLKPEDTAVYYCAAAQSKYSFYWGDYYYWGQGTQVTVSS    high polyreactivity

Now take the following sequence into account.
Give reported polyreactivity (PSR sort gate) value for `QVQLVESGGGLVQAGGSLRLSCAASGSIFGRNVMGWYRQAPGKERELVARITRGGSTNYADSVKGRFTISRDNAKNTVYLQMNRLQPEDTAVYYCAAGARQYRGVPDRYGYWGQGTQVTVSS`
low polyreactivity

====

test: yeast display, Sf9 membrane polyspecificity reagent, FACS + sequencing; frameworks hold sequencing errors
Quantity: polyreactivity (PSR sort gate)

QVQLVESGGGLVQAGGSLRLICAASGIIFYRYAMGWYRQAPGKEREFVAAISRGGGSTYYADSVKGRFTISRDNAKNTVYLQMNSLKPEDTAVYYCNARVTRVTVDQYSIKSMDYWGQGTQVTVSS    high polyreactivity
QVQLVESGGALVHAGGSLRLSCAASGSIFYQYDMGWYRQAPLKERELVAAISRSGTRTYYEDSVKGRFTISRDNAKNTVYLKMNSLKPEDTAVYYCARRYRSGYGYWGQGTQVTVSS    high polyreactivity
QVQLVESGGGLVQAGGSLRLSCAASGSTFRLNAMGWYRQARGKEWEFVAAISSRGGSTYYADSVKGRFTISRDNAKNTDYLQMNSLKPEDTAVYYCKAVRSKLIENDYWGQGTQVTVSS    high polyreactivity
QVQLVESGGGLVQAGGSLRLSCAASGFIFVYYAMGWYRQAPGKERELVAAISKRGGNTYYADSVKGRFTISRDNAKNTVYLQMNSLKPEDTAVYYCAADGPGHYYAELEYDYWGQGTQVTVSS    high polyreactivity

====

test: yeast display, Sf9 membrane polyspecificity reagent, FACS + sequencing; frameworks hold sequencing errors
Quantity: polyreactivity (PSR sort gate)

QVQLVESGGGLVQAGGSLRLSCAASGRIFVYNAMGWYRQAPGKERELVAGITASGGSTYYADSGKGRFTISRDNAKNTVYLQMNSLKPEDTAVYYCAATRYKRRYYYWGQGTQVTVSS    high polyreactivity
QVQLVESGGGLVQAGGSLRLSCAASGFTSAPYAMGWNRQAPGKERELVAAISSGDTTSYADSVKGRFTISRDNEKNTVYFQMNSLKPEDTAVYYCAAVYFNVIESYKTAGYDYWGQGTQVTVSS    low polyreactivity
QVQLVESGGCLVQAGGSLRLSCAASGSISYSYSMGWYRQAPGKERELVATISWGGGRTYYADSVKGRFTISRDNAKNTVYLQMNSLKPEDTAVYYFATAYRFRYGFAKRYDYWGQGTQVTVSS    low polyreactivity
QVQLVESGGGLVQAGGSLRLSCAASGYTSKTYAMGWYRQAPGKERELVAAINWGSGSTYYADSVKGRFTISRDNAKNTVYFQMYSLKPEDTAVYYCAALVYGHRRLVGNLSRGYWGQGTQVTVSS    high polyreactivity

Give reported polyreactivity (PSR sort gate) value for `QVQLVESGGGLVQAGGSLRLSCAASGSIFYTNAMGWYRPAPGKERELVAAIRTGGSTNYADSVKGRFTISRDNAKNTVYLQMNSLKPEDTAVYYCAAAYGYGHKKYGYWGQATQVTVSS`
low polyreactivity

Give reported polyreactivity (PSR sort gate) value for `QVQLVESGGGLVQAGGSLRLSCAASGSTFNYYAMGWYRQAHGTERELFAAITYRGGSTYYADSVKGRFTISRDNAKNTVYLHMNLLKPEDTAVYYCNARQVRYMYAQDEGYDYWGLGTQVTVSS`
high polyreactivity

Give reported polyreactivity (PSR sort gate) value for `QVQLVDSGGGLVQPGGSLRLRCAASGGIFLQNAMGWYRQAPGTERELVAAISWSAGSTYYADSVKGRFTISRDNAKNTVYLDMNCLKPEDTAVYYCAAAGSNFTVWYGYYYWGQGTQVTVSS`
low polyreactivity
